Each entry below carries its reported fraction ligated.
# System: F1*sub RNA substrate (template-directed ligation)
# EXPERIMENTAL DETAILS: fraction ligated after 30 min (ligated reads / total reads); higher = more ligase activity; sequences stand for … in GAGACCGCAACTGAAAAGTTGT…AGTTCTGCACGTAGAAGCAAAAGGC
# PROTOCOL CONDITIONS: 42 °C
# print the numeric value only

Request: Requested read-out: fraction ligated. Entry: TTCATTGTCGTAAACACTTTGGATGGGTTGA [3d324]
Result: 0.068

Request: // same read-out, input: TATCACTTGTCGTAAGACACTTTAGGGTTGA [3d2256]
Result: 0.0176

Request: // same read-out, input: TTCACTGTCTAAGACACTTTGGATGGGTTGA [3d340]
Result: 0.774

Request: // same read-out, input: TACACTTGTCGTAAGACCTTTGGATGGGTTGA [2d60]
Result: 0.625

Request: // same read-out, input: TATCACTTGCGTAGAACTTTGGATGGGTTGA [3d1629]
Result: 0.862

Request: // same read-out, input: TATACTTGTGTAAGACACTTTGGATGGGTTA [3d841]
Result: 0.134

Request: // same read-out, input: ATCACTTTCGTAAGACCTTTGGATGGGTTGA [3d131]
Result: 0.752

Request: // same read-out, input: TACACTTGTCGTAAGACACTTTGGATGGGTTG [2d68]
Result: 0.758

Request: // same read-out, input: TATCACTTGTGTGACACTTTGGATGGGTTGA [3d1731]
Result: 0.826

Request: // same read-out, input: TATCACTTGTCGTAAACACTTTGGGGGTTGA [3d2094]
Result: 0.0881

Request: // same read-out, input: ATCACTTGCGTAAACACTTTGGATGGGTTGA [3d144]
Result: 0.758

Request: // same read-out, input: TATCACTTGCGTAAGAACTTTGGAGGGTTGA [3d1663]
Result: 0.0542
